Molecular target: Inward rectifier potassium channel 2 (Mus musculus) (UniProt P35561)
Sequence (P35561 whole entry, looked up): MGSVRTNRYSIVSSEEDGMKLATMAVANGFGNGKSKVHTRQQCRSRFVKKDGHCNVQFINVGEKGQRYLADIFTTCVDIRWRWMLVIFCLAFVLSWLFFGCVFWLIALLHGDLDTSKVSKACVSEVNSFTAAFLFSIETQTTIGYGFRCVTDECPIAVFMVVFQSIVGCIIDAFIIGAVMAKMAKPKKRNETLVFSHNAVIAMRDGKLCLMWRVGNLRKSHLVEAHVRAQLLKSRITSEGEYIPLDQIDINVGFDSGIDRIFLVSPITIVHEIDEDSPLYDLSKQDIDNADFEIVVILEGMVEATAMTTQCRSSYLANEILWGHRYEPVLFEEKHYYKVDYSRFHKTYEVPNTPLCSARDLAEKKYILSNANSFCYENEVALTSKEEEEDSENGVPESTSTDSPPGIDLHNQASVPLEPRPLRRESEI
Experiment: mouse Kir2.1 channel blockers, dose response, orthogonal assay for Kir2.1 inhibitor project, cell-based, automated electrophysiology, IonWorks patch clamp (AID 2581)
Conditions: Kir2.1 cell line, IonWorks patch clamp current at -100 mV
Quick list: IC50 per entry.

QUERY: Can you share its IC50? I mean this compound: COc1ccc(CNCc2cccc3ccccc23)c(OC)c1
RESULT: 28.2 µM

QUERY: Can you share its IC50? I mean this compound: COc1ccc(CNCc2ccc(C)cc2)cc1
RESULT: 8.01 µM

---

Target: UniProt P35561
Assay: mouse Kir2.1 channel blockers, dose response, orthogonal assay for Kir2.1 inhibitor project, cell-based, automated electrophysiology, IonWorks patch clamp (AID 2581)
Details: Kir2.1 cell line, IonWorks patch clamp current at -100 mV
Quick list: IC50 per entry.

- COc1ccc(CNCc2cccc3ccccc23)cc1OC: 23 µM

QUERY: Can you share its IC50? I mean this compound: COc1ccccc1CNCc1cccc2ccccc12
RESULT: 18.1 µM

QUERY: Can you share its IC50? I mean this compound: COc1cccc(CNCc2cccc3ccccc23)c1
RESULT: 23.6 µM

QUERY: Can you share its IC50? I mean this compound: COc1ccc(CNCc2ccc(OC)cc2)cc1
RESULT: 13.3 µM

QUERY: Can you share its IC50? I mean this compound: COc1ccc(CNCc2ccc(Cl)cc2)cc1
RESULT: 11.5 µM

QUERY: Can you share its IC50? I mean this compound: COc1ccc(CNCc2ccccc2C)cc1
RESULT: 16.8 µM

QUERY: Can you share its IC50? I mean this compound: COc1ccc(CNCc2ccc3ccccc3c2)cc1
RESULT: 9.76 µM

QUERY: Can you share its IC50? I mean this compound: COc1ccc(CNCc2ccc(OC)c3ccccc23)cc1
RESULT: 20.6 µM

Values were extracted from PubChem BioAssay AID2581.
